All values here come from ChEMBL document CHEMBL3779871.

biological target: Arachidonate 5-lipoxygenase-activating protein (Homo sapiens, UniProt P20292); assay: Inhibition of FLAP in Ca+2 ionophore A23187 stimulated human neutrophils assessed as 5-LO product formation preincubated for 15 mins measured after 10 mins by RP-HPLC analysis
Sequence (P20292 whole entry): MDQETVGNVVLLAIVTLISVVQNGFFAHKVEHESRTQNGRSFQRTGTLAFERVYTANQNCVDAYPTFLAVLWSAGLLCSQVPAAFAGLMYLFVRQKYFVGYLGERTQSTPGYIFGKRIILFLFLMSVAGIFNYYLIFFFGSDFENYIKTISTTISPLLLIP
Note to self: IC50 under 1000 nM means Y, ties and anything higher get N.

As a guide, the following entries are already answered.
compound string | cat
O=C(O)c1noc(-c2ccc(OCc3ccccc3C(F)(F)F)cc2)c1-c1ccc(Cl)cc1 | Y
N#Cc1cccc(COc2ccc(-c3onc(C(=O)O)c3-c3ccc(Cl)cc3)cc2)c1 | N
O=C(O)c1noc(-c2ccc(OCc3nc4ccccc4s3)cc2)c1-c1ccc(Cl)cc1 | Y
Cc1ccccc1COc1ccc(-c2onc(C(=O)O)c2-c2ccc(Cl)cc2)cc1 | N
Cc1ccc(COc2ccc(-c3onc(C(=O)O)c3-c3ccc(Cl)cc3)cc2)cc1 | N

# check: IC50 < 1000 nM for O=C(O)c1noc(-c2ccc(OCc3ccccn3)cc2)c1-c1ccc(Cl)cc1
N

# check: IC50 < 1000 nM for O=C(O)c1noc(-c2ccc(OCc3ccc4ccccc4n3)cc2)c1-c1ccc(Cl)cc1
Y

# check: IC50 < 1000 nM for O=C(O)c1noc(-c2ccc(OCc3cccc(F)c3)cc2)c1-c1ccc(Cl)cc1
N

# check: IC50 < 1000 nM for O=C(O)c1noc(-c2ccc(OCc3ccccc3Cl)cc2)c1-c1ccc(Cl)cc1
N

# check: IC50 < 1000 nM for CCOC(=O)c1noc(-c2ccc(OCc3ccccc3C)cc2)c1-c1ccc(Cl)cc1
N
